Property: MRT inf; scope: individual compounds
procedure-text: Systemic clearance and pharmacokinetics after i.v. dose in C57BL/6 mice aging 2 months
Format: in vivo, mouse
measurement-context: male, C57BL/6, mouse, plasma, iv; i.v. 1.0 mg/kg; read-out: MRT 0-∞
Numbers only; they are read as h.

input: Specify measured MRT inf for COCCOCCn1c2ccccc2c2cc(/C=C/c3cc[n+](CCO)c4ccccc34)ccc21 .
output: 1.8

Let us move to another entry and its MRT inf.
input: Specify measured MRT inf for COCCOCCn1c2ccccc2c2cc(/C=C/c3cc[n+](C)c4ccccc34)ccc21.[I-] .
output: 3.2

---

Property: Vd; scope: individual compounds
procedure-text: Systemic clearance and pharmacokinetics after i.v. dose in C57BL/6 mice aging 2 months
Format: in vivo, mouse
measurement-context: male, C57BL/6, mouse, plasma, iv; i.v. 2.0 mg/kg; read-out: Vd ss
// unit must come after the numeric part

input: Specify measured Vd for COCCOCCn1c2ccccc2c2cc(/C=C/c3cc[n+](C)c4ccccc34)ccc21.[I-] .
output: 1.7 L/kg

Let us move to another entry and its Vd.
input: Specify measured Vd for COCCOCCn1c2ccccc2c2cc(/C=C/c3cc[n+](CCO)c4ccccc34)ccc21 .
output: 1 L/kg

---

Property: half-life; scope: individual molecules
procedure-text: Systemic clearance and brain distribution in WT and 3 × Tg-AD mice (8 months)
Type: in vivo, mouse
measurement-context: B6129SF2/J (wild-type), mouse, plasma, iv; WT mice 8 months, 1 mg/kg i.v.
Numbers only; they are read as h.

input: Specify measured half-life for COCCOCCn1c2ccccc2c2cc(/C=C/c3cc[n+](CCO)c4ccccc34)ccc21 [SLOH] .
output: 4.3

input: Specify measured half-life for COCCOCCn1c2ccccc2c2cc(/C=C/c3cc[n+](C)c4ccccc34)ccc21.[I-] [SLM] .
output: 6

---

procedure-text: in vitro
measurement-context: human, Caco-2
measurement-name: Papp A→B at 1 μM (×10⁻⁶ cm/s)
Numbers only; they are read as ×10⁻⁶ cm/s.

input: Specify measured Papp A→B at 1 μM for COC(=O)c1ccccc1-c1c2ccc(=N)cc-2oc2cc(N)ccc12 [Rhodamine 123] .
output: 0.73

input: Specify measured Papp A→B at 1 μM for CC(C)NCC(O)COc1cccc2ccccc12 (stereo not shown) [Propranolol, reference compound] .
output: 17

input: Specify measured Papp A→B at 1 μM for COCCOCCn1c2ccccc2c2cc(/C=C/c3cc[n+](CCO)c4ccccc34)ccc21 [SLOH] .
output: 2.7

input: Specify measured Papp A→B at 1 μM for COCCOCCn1c2ccccc2c2cc(/C=C/c3cc[n+](C)c4ccccc34)ccc21.[I-] [SLM] .
output: 2.5

---

procedure-text: Systemic clearance and brain distribution in WT and 3 × Tg-AD mice (8 months)
Assay type: in vivo, mouse
measurement-context: B6129SF2/J (wild-type), mouse, plasma, iv; WT mice 8 months, 1 mg/kg i.v.; read-out: MRT 0−∞
Property: MRT inf; scope: individual compounds
Numbers only; they are read as h.

input: Specify measured MRT inf for COCCOCCn1c2ccccc2c2cc(/C=C/c3cc[n+](C)c4ccccc34)ccc21.[I-] [SLM] .
output: 1.5

Let us move to another entry and its MRT inf.
input: Specify measured MRT inf for COCCOCCn1c2ccccc2c2cc(/C=C/c3cc[n+](CCO)c4ccccc34)ccc21 [SLOH] .
output: 3
